# Format: in vivo, patients with advanced solid tumours
# ASSAY SETUP: human, plasma, po, 1 mg
OBSERVABLE: Vd/F (L)
Field format: number, assumed L, no unit text.

Q) Recorded Vd/F for "Cn1ncnc1[C@H]1c2n[nH]c(=O)c3cc(F)cc(c23)N[C@@H]1c1ccc(F)cc1" , please?
A) 624

* * *

# Type: in vivo, patients with advanced solid tumours
# ASSAY SETUP: human, plasma, oral, 0.5 mg
OBSERVABLE: Cmax (ng/mL)
Field format: number, assumed ng/mL, no unit text.

Q) Recorded Cmax for "Cn1ncnc1[C@H]1c2n[nH]c(=O)c3cc(F)cc(c23)N[C@@H]1c1ccc(F)cc1" , please?
A) 2.09
